# Target under test: GABA-A receptor; alpha-2/beta-3/gamma-2 (Homo sapiens, UniProt P18507+P28472+P47869)
# Sequence (P18507 whole entry): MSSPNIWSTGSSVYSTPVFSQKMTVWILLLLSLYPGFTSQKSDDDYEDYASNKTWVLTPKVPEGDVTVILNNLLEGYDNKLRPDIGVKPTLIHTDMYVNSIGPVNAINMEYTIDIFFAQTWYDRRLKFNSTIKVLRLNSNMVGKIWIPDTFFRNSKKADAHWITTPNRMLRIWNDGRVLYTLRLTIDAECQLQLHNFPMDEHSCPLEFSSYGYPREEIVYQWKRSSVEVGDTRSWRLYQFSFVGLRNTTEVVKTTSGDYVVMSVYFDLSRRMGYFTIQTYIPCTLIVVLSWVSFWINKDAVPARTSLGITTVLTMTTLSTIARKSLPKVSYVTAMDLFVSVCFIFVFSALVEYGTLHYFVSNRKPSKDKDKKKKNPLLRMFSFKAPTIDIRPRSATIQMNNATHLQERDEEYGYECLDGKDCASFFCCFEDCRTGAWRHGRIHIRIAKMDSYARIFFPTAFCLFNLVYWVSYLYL
# Sequence (P28472 whole entry): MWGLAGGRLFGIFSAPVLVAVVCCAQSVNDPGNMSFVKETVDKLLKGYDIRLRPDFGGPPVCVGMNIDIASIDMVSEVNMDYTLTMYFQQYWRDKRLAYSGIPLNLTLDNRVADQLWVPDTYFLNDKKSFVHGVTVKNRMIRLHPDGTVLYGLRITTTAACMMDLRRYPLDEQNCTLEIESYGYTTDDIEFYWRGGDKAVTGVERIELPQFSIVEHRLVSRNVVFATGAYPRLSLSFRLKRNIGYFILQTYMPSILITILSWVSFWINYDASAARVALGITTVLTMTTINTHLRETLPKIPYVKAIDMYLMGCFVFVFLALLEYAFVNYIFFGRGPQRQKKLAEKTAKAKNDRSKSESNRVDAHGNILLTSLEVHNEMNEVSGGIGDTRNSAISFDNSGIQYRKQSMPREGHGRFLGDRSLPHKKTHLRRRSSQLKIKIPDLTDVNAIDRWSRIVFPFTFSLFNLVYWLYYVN
# Sequence (P47869 whole entry): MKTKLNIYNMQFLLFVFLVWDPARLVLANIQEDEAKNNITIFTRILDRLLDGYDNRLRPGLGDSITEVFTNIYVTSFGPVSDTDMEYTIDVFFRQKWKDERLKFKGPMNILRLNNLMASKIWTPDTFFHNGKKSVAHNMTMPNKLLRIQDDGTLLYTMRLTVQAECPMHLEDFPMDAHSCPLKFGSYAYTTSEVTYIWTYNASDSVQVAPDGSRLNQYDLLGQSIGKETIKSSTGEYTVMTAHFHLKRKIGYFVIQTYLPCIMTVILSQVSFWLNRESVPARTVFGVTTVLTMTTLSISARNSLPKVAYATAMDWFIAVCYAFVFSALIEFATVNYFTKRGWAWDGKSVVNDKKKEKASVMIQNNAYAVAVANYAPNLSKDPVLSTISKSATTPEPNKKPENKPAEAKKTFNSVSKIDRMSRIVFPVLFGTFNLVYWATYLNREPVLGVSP
# Protocol: Binding affinity to human recombinant gamma-aminobutyric-acid (GABA) A receptor alpha-2-beta-3-gamma-2
pKi: −log10 of the molar value.
Short version: pKi at least 7 is true, less is false.

{"Molecule": "O=C1C2C=Nc3ccccc3C2=NN1c1ccccc1 (stereo not given) [CGS-8216]", "Classification": "true"}
{"Molecule": "CCOC(=O)c1cc2c3cc(OCc4ccccc4)ccc3nc-2c[nH]1", "Classification": "false"}
{"Molecule": "O=c1c2cnc3ccc(Cl)cc3c2[nH]n1-c1ccccc1", "Classification": "true"}

* * *

# Target under test: GABA-A receptor; alpha-3/beta-3/gamma-2 (Homo sapiens, UniProt P18507+P28472+P34903)
# Sequence (P34903 whole entry, one chain of several): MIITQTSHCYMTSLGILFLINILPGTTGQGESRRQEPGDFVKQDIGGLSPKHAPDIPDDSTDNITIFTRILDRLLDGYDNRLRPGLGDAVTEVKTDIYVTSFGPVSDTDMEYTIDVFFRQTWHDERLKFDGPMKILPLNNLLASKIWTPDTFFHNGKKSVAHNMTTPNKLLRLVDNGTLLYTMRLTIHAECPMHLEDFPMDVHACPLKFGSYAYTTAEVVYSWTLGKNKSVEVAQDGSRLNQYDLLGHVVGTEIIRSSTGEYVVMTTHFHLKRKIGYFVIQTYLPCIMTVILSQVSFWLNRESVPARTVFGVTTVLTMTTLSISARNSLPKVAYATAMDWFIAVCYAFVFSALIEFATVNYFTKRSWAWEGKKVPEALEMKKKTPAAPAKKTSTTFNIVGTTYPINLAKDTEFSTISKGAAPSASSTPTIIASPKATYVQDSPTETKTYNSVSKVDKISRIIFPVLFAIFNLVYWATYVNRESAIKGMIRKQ
# Protocol: Binding affinity for human recombinant gamma-aminobutyric-acid (GABA) A receptor alpha-3-beta-3-gamma-2
# Assay type: protein-complex assay
pKi: −log10 of the molar value.
Entries and their pKi values follow.

{"Molecular string": "COc1ccc2ncc3c(=O)n(-c4ccccc4)[nH]c3c2c1", "pKi": 10.05}
{"Molecular string": "O=c1c2cnc3ccccc3c2[nH]n1-c1ccc(Br)cc1", "pKi": 9.60}
{"Molecular string": "CCOc1cc2c(cn1)[nH]c1ccccc12", "pKi": 7.55}

* * *

# Target under test: GABA-A receptor; alpha-5/beta-3/gamma-2 (Homo sapiens, UniProt P18507+P28472+P31644)
# Sequence (P18507 whole entry): as the sequence (P18507 whole entry) above
# Sequence (P28472 whole entry): as the sequence (P28472 whole entry) above
# Sequence (P31644 whole entry): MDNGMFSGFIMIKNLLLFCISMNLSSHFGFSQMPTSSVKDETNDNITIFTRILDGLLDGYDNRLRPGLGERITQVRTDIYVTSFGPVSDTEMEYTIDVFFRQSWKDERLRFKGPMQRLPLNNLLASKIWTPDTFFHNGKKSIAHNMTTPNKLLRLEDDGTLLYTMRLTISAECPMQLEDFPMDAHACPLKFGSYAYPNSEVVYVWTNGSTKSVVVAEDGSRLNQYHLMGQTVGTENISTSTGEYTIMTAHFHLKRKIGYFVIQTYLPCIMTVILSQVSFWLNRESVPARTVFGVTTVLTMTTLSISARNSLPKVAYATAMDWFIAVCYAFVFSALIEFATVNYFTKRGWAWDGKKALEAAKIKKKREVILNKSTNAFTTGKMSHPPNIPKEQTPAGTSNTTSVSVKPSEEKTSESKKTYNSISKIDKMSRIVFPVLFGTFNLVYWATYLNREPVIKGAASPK
# Protocol: Binding affinity for human recombinant gamma-aminobutyric-acid (GABA) A receptor alpha-5-beta-3-gamma-2
pKi: −log10 of the molar value.

{"Molecular string": "S=C=Nc1cc2c3ccccc3nc-2c[nH]1", "Target under test": "GABA-A receptor; alpha-5/beta-3/gamma-2 (Homo sapiens, UniProt P18507+P28472+P31644)", "Operator": "<", "pKi": 5.52}
{"Molecular string": "CCCCCCCCOc1ccc2c(c1)c1c(CC)c(C(=O)OCC)ncc1n2C", "Target under test": "GABA-A receptor; alpha-5/beta-3/gamma-2 (Homo sapiens, UniProt P18507+P28472+P31644)", "Operator": "<", "pKi": 6.00}
{"Molecular string": "CC(C)(C)C(=O)Oc1ccc2c(c1)[nH]c1c3c4ccccc4nc-3c[nH]c12", "Target under test": "GABA-A receptor; alpha-5/beta-3/gamma-2 (Homo sapiens, UniProt P18507+P28472+P31644)", "Operator": "<", "pKi": 5.52}
{"Molecular string": "Clc1cccn2c1nc1c3c4ccccc4nc-3c[nH]c12", "Target under test": "GABA-A receptor; alpha-5/beta-3/gamma-2 (Homo sapiens, UniProt P18507+P28472+P31644)", "Operator": "<", "pKi": 5.00}
{"Molecular string": "COC(=O)c1cc2c3cc(SC#N)ccc3nc-2c[nH]1", "Target under test": "GABA-A receptor; alpha-5/beta-3/gamma-2 (Homo sapiens, UniProt P18507+P28472+P31644)", "Operator": "=", "pKi": 6.85}
{"Molecular string": "CN1C(=O)CN=C(c2ccsc2)c2cc(Cl)ccc21", "Target under test": "GABA-A receptor; alpha-5/beta-3/gamma-2 (Homo sapiens, UniProt P18507+P28472+P31644)", "Operator": "<", "pKi": 6.52}
{"Molecular string": "COc1ccc2ncc3c(=O)n(-c4ccccc4)[nH]c3c2c1", "Target under test": "GABA-A receptor; alpha-5/beta-3/gamma-2 (Homo sapiens, UniProt P18507+P28472+P31644)", "Operator": "=", "pKi": 9.70}
{"Molecular string": "N#CSc1ccc2[nH]c3cnc(SC#N)cc3c2c1", "Target under test": "GABA-A receptor; alpha-5/beta-3/gamma-2 (Homo sapiens, UniProt P18507+P28472+P31644)", "Operator": "=", "pKi": 5.54}
{"Molecular string": "CC(C)(C)OC(=O)c1ncn2c1[C@@H]1CCCN1C(=O)c1c(Br)cccc1-2", "Target under test": "GABA-A receptor; alpha-5/beta-3/gamma-2 (Homo sapiens, UniProt P18507+P28472+P31644)", "Operator": "=", "pKi": 9.30}
{"Molecular string": "CCCOc1ccc2c(c1)c1c(COC)c(C(=O)OCC)ncc1n2C", "Target under test": "GABA-A receptor; alpha-5/beta-3/gamma-2 (Homo sapiens, UniProt P18507+P28472+P31644)", "Operator": "=", "pKi": 6.79}
{"Molecular string": "O=c1c2c[nH]c3ccc(Br)cc3c-2nn1-c1ccccc1", "Target under test": "GABA-A receptor; alpha-5/beta-3/gamma-2 (Homo sapiens, UniProt P18507+P28472+P31644)", "Operator": "=", "pKi": 9.92}
